assay: Biodistribution of the 99mTc(N) heterocomplexes in rats (organ uptake, heart accumulation, heart/lung and heart/liver ratios); assay type: in vivo, female Sprague-Dawley rats; conditions: 10 min post injection
result.type: Biodistribution in rats: Blood (% dose/g)

>>> print(df.to_string())
                                   compound  recorded_value
0  CCOCCN1CC[P](CCCOC)(CCCOC)[99Tc+]2(#[N])([S]C(N(CCOCC)C(C)C)=[S]2)[P](CCCOC)(CCCOC)CC1 [[^99mTc(N) (PNP5) (ISOET)]^+]            0.04
1  CCOCCN1CC[P](CCCOC)(CCCOC)[99Tc+]2(#[N])([S]C(N(CCOCC)CCOCC)=[S]2)[P](CCCOC)(CCCOC)CC1 [[^99mTc(N) (PNP5) (DBODC)]^+]            0.03

---

Experiment: Biodistribution of the 99mTc(N) heterocomplexes in rats (organ uptake, heart accumulation, heart/lung and heart/liver ratios)
Format: in vivo, female Sprague-Dawley rats
Details: rats, 2 min
Protocol: The biodistribution was measured by using female Sprague-Dawley rats (SD rats) weighing 200 g to 250 g. Each of the ^99mTc(N) heterocomplexes purified in the manner described above was diluted with phosphate buffer (0.1 M, pH=7.4) to obtain a final solution having an ethanol content of 10%. […] The blood was withdrawn from the heart through a syringe and counted. […] The organs were excised from the rats, washed with physiological saline, weighed, and counted in a NaI well counter. […]
result.type: Heart/lung ratio in biodistribution

Below: 3 compounds and their reported Heart/lung ratio in biodistribution.
>>> print(df.to_string())
                                   compound  recorded_value
0  COCCC[P]1(CCCOC)CCN(CCOC)CC[P](CCCOC)(CCCOC)[99Tc+]12(#[N])[S]C(N(CCOC)CCOC)=[S]2 [[^99m−Tc(N) (PNP3) (DPODC)^+]]            3.17
1  CCOCCN1CC[P](CCCOC)(CCCOC)[99Tc+]2(#[N])([S]C(N(CCOCC)CCOCC)=[S]2)[P](CCCOC)(CCCOC)CC1 [[^99mTc(N) (PNP5) (DBODC)^+]]            3.98
2  CCOCCN(CCOCC)C1=[S][99Tc+]2(#[N])([S]1)[P](CCCOC)(CCCOC)CCN(CCOC)CC[P]2(CCCOC)CCCOC [[^99m−Tc(N) (PNP3) (DBODC)^+]]            3.39

a. CCOCCN1CC[P](CCCOC)(CCCOC)[99Tc+]2(#[N])([S]C(N(CCOCC)C(C)C)=[S]2)[P](CCCOC)(CCCOC)CC1 [[^99mTc(N) (PNP5) (ISOET)^+]]
b. CCOCCC[P]1(CCCOCC)CCN(CCOCC)CC[P](CCCOCC)(CCCOCC)[99Tc+]12(#[N])[S]C(N(CCOCC)CCOCC)=[S]2 [[^99mTc(N) (PNP6) (DBODC)^+]]
Could you point out whether the larger Heart/lung ratio in biodistribution belongs to a or to b ? Identify your pick by its label.
a
(a: 3.15, b: 0.99)

---

test: Biodistribution of the 99mTc(N) heterocomplexes in rats (organ uptake, heart accumulation, heart/lung and heart/liver ratios); type: in vivo, female Sprague-Dawley rats; conditions: rats, 60 min
result.type: Heart/liver ratio in biodistribution

>>> df
                                   molecule  recorded_value
0  CCOCCN(CCOCC)C1=[S][99Tc+]2(#[N])([S]1)[P](CCCOC)(CCCOC)CCN(CCOC)CC[P]2(CCCOC)CCCOC [[^99m−Tc(N) (PNP3) (DBODC)^+]]           20.44
1  COCCC[P]1(CCCOC)CCN(CCOC)CC[P](CCCOC)(CCCOC)[99Tc+]12(#[N])[S]C(N(CCOC)CCOC)=[S]2 [[^99m−Tc(N) (PNP3) (DPODC)^+]]            5.38
2  CCOCCN1CC[P](CCCOC)(CCCOC)[99Tc+]2(#[N])([S]C(N(CCOCC)CCOCC)=[S]2)[P](CCCOC)(CCCOC)CC1 [[^99mTc(N) (PNP5) (DBODC)^+]]            18.8

a. CCOCCN1CC[P](CCCOC)(CCCOC)[99Tc+]2(#[N])([S]C(N(CCOCC)C(C)C)=[S]2)[P](CCCOC)(CCCOC)CC1 [[^99mTc(N) (PNP5) (ISOET)^+]]
b. CCOCCC[P]1(CCCOCC)CCN(CCOCC)CC[P](CCCOCC)(CCCOCC)[99Tc+]12(#[N])[S]C(N(CCOCC)CCOCC)=[S]2 [[^99mTc(N) (PNP6) (DBODC)^+]]
Endpoint returns whichever of a and b has the numerically higher Heart/liver ratio in biodistribution. Reply with the label of the item you choose.
a
